Test system: SGC-7901
Test: Cytotoxicity against human SGC7901 cells after 48 hrs by MTT assay
Type: functional, cell-based
Details: SGC-7901, 48 h
# note: boundary value 30 µM maps to n; IC50 below it maps to y

Use the examples below as a reference point.
| SMILES STRUCTURE | GROUP |
| --- | --- |
| CCOC(=O)[C@]1(C)CCC[C@@]2(C)[C@@H]3CC[C@@]4(C)C[C@]3(CC[C@@H]21)[C@@H]1CON(C(=S)Nc2ccc(C)cc2)[C@@H]14 | n |
| CCOC(=O)[C@]1(C)CCC[C@@]2(C)[C@@H]3CC[C@@]4(C)C[C@]3(CC[C@@H]21)[C@@H]1CON(C(=S)Nc2c(C)cccc2C)[C@@H]14 | y |
| CCOC(=O)[C@]1(C)CCC[C@@]2(C)[C@@H]3CC[C@@]4(C)C[C@]3(CC[C@@H]21)c1cn(C(=S)Nc2c(C)cccc2C)nc14 | y |
| CCOC(=O)[C@]1(C)CCC[C@@]2(C)[C@@H]3CC[C@@]4(C)C[C@]3(CC[C@@H]21)[C@@H]1CON(C(=S)Nc2ccc(Cl)cc2Cl)[C@@H]14 | y |
| C[C@@]12CC[C@@H]3[C@@](CC[C@H]4[C@@]3(C)CCC[C@@]4(C)C(=O)O)(CC1=O)C2 | n |

Now take the following molecule into account.
query: Strictly below 30 µM: is that where IC50 of CCOC(=O)[C@]1(C)CCC[C@@]2(C)[C@@H]3CC[C@@]4(C)C[C@]3(CC[C@@H]21)c1cn(C(=S)Nc2ccc(OC)cc2)nc14 sits?
result: y

---

Tested on: SGC-7901
Assay: Cytotoxicity against human SGC7901 cells after 48 hrs by MTT assay
Type: functional, cell-based
Details: SGC-7901, 48 h
Field: IC50. Provide a value for each of the compounds that follow.
Answers are plain numbers, in µM.

| SMILES STRUCTURE | MEASURED PROPERTY | VALUE MEASURED |
| --- | --- | --- |
| CCOC(=O)[C@]1(C)CCC[C@@]2(C)[C@@H]3CC[C@@]4(C)C[C@]3(CC[C@@H]21)c1cn(C(=S)Nc2cccc([N+](=O)[O-])c2)nc14 | IC50 | 16 |

Continue with the next compound.
query: State recorded IC50 with SGC-7901, entry CCOC(=O)[C@]1(C)CCC[C@@]2(C)[C@@H]3CC[C@@]4(C)C[C@]3(CC[C@@H]21)c1cn(C(=S)Nc2ccccc2Br)nc14 , no comment.
result: 17.2

---

Test system: SGC-7901
Experiment: Cytotoxicity against human SGC7901 cells after 48 hrs by MTT assay
Type: functional, cell-based
Details: SGC-7901, 48 h
MEASURED PROPERTY: pIC50
Answers are plain numbers, as −log10 of the molar value.

| SMILES STRUCTURE | MEASURED PROPERTY | VALUE MEASURED |
| --- | --- | --- |
| CCOC(=O)[C@]1(C)CCC[C@@]2(C)[C@@H]3CC[C@@]4(C)C[C@]3(CC[C@@H]21)[C@@H]1CON(C(=S)Nc2cccc(C)c2)[C@@H]14 | pIC50 | 4.47 |
| CCOC(=O)[C@]1(C)CCC[C@@]2(C)[C@@H]3CC[C@@]4(C)C[C@]3(CC[C@@H]21)c1cn(C(=S)Nc2ccc(F)cc2)nc14 | pIC50 | 4.74 |
| CCOC(=O)[C@]1(C)CCC[C@@]2(C)[C@@H]3CC[C@@]4(C)C[C@]3(CC[C@@H]21)c1cn(C(=S)Nc2ccc(C)cc2)nc14 | pIC50 | 4.83 |

Now look at this one.
query: Annotate the molecule CCOC(=O)[C@]1(C)CCC[C@@]2(C)[C@@H]3CC[C@@]4(C)C[C@]3(CC[C@@H]21)c1cn(C(=S)Nc2cccc(OC)c2)nc14 with its measured pIC50.
result: 4.90

Data origin: ChEMBL document CHEMBL2331181
